Assay: Stability on incubation with human liver microsomes (HLM)
Type: in vitro ADME
Settings: percentage left after incubation with human liver microsomes for 30 minutes
Reported HLM % Remaining@ 30 Min values are given for each entry in this list.
Expressed in %, but write only the number.

// below: answered compounds
Oc1c(C(Nc2cc(Cl)c(Cl)cn2)c2cccc(Cl)c2Cl)ccc2cccnc12 (stereo not drawn)    100
Cc1cc(Cl)cnc1NC(c1ccc(C(F)(F)F)c(F)c1)c1ccc2cccnc2c1O (stereo not drawn)    98
Cc1cc(NC(c2cc(Cl)cc(Cl)c2)c2ccc3cccnc3c2O)ncc1Cl (stereo not drawn)    94
Oc1c(C(Nc2cccnc2)c2cccc(Cl)c2Cl)ccc2cccnc12 (stereo not drawn)    48
Oc1c(C(Nc2cc(Cl)c(Cl)cn2)c2ccc(Cl)cc2Cl)ccc2cccnc12 (stereo not drawn)    100

Given the entry Cc1cc(Cl)cnc1NC(c1cc(Cl)cc(Cl)c1)c1ccc2cccnc2c1O (stereo not drawn) , report its measured HLM % Remaining@ 30 Min.
100

# get_value(readout='HLM % Remaining@ 30 Min', item= Oc1c(C(Nc2ncc(Cl)cc2F)c2ccc(Cl)c(Cl)c2)ccc2cccnc12 (stereo not drawn) )
100

# get_value(readout='HLM % Remaining@ 30 Min', item= Cc1cc(NC(c2ccc(Cl)cc2Cl)c2ccc3cccnc3c2O)ncc1Cl (stereo not drawn) )
84

Name the recorded HLM % Remaining@ 30 Min for Cc1cc(NC(c2ccc(Cl)c(C(F)(F)F)c2)c2ccc3cccnc3c2O)ncc1Cl (stereo not drawn) .
93

###

Test system: MDBK line
Assay: MTT Cell Proliferation Assay, MDBK line
Type: cell-based, bovine
Details: Bos taurus, MDBK, 72 h; second value of A431/MDBK pair; read-out: MTT-72 h MDBK
From the text: The following example describes the MTT Cell Proliferation Assay. The MTT Cell Proliferation Assay is a colorimetric assay system that measures the reduction of the tetrazolium salt MTT (3-(4,5-dimethylthiazol-2-yl)-2,5-diphenyltetrazolium bromide) into insoluble formazan crystals, produced by the mitochondria of viable cells. […] The color can then be quantified by spectrophotometric means. […] Plates were read in a Tecan Sunrize UV plate reader, at 560 nm. […]
MEASUREMENT NAME: pIC50
Here pIC50 is given on a logarithmic scale as minus log10 of the concentration in mol/L.

# annotated cases, reported pIC50 shown
CCCOc1ccc(C(Nc2ccccn2)c2ccc3cccnc3c2O)cc1 (stereo not drawn)    5.27
Oc1c(C(Nc2ccccn2)c2ccccc2F)ccc2cccnc12 (stereo not drawn)    5.34
Oc1c(C(Nc2ccccn2)c2cccc(Cl)c2Cl)ccc2cccnc12 (stereo not drawn)    5.85
COc1cc(C(Nc2ccccn2)c2cc(Cl)c3cccnc3c2O)cc(Br)c1O (stereo not drawn)    5.24
Oc1c(C(Nc2ccccc2)c2ccccn2)ccc2cccnc12 (stereo not drawn)    5.09
Oc1c(C(Nc2ccccn2)c2ccsc2)ccc2cccnc12 (stereo not drawn)    4.85

# input compound: Cc1ccnc(NC(c2ccc3c(c2)OCO3)c2ccc3cccnc3c2O)c1 (stereo not drawn) ; wanted: its pIC50
5.27

Recorded pIC50 of O=[N+]([O-])c1ccccc1C(Nc1ccccn1)c1ccc2cccnc2c1O (stereo not drawn) , please.
5.83

Requested read-out: pIC50. Entry: C=CCOc1cccc(C(Nc2cc(C)ccn2)c2ccc3cccnc3c2O)c1 (stereo not drawn)
5.28

###

Entries annotated with measured ICW Re-Test
Target: EGFR (Homo sapiens, UniProt P00533)
Construct: endogenous in cells; host or cells: A431 cells (ATCC CRL-1555)
Sequence (P00533 25-1210): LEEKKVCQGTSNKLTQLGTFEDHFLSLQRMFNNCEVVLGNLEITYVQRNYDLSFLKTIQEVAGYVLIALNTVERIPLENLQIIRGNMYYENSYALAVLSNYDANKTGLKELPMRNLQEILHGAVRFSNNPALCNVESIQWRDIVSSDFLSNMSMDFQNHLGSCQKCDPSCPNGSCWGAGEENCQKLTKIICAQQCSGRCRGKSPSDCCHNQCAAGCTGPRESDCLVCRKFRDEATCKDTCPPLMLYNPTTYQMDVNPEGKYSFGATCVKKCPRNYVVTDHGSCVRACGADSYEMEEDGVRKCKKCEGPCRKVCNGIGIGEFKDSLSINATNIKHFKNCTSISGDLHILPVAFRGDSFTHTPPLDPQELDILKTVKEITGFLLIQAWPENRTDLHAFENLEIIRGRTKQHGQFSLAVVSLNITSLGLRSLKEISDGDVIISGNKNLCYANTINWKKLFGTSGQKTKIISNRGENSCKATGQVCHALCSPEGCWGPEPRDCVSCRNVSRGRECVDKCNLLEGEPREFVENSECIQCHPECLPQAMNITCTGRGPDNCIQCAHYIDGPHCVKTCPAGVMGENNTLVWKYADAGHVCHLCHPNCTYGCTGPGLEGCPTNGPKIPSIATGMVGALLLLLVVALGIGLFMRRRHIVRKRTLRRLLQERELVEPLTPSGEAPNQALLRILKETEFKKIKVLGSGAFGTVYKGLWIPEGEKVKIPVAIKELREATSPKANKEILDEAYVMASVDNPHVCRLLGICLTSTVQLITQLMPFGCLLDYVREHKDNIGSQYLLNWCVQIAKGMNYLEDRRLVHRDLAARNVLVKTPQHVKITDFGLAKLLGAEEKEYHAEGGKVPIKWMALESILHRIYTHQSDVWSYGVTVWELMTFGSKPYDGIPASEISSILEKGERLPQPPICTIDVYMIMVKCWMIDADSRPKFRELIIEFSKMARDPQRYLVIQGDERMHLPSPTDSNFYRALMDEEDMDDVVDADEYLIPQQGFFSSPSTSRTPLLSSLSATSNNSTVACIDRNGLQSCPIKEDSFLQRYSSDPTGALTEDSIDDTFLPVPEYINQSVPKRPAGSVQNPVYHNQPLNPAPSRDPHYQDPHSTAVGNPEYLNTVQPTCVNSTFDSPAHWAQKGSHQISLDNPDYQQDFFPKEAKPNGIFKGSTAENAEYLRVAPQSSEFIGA
Experiment: EGFR in-cell Western (ICW) screening protocol
Assay type: cell-based
Design: unit not given here
Details: re-test
Please give the numeric answer without any surrounding text.

Oc1c(C(Nc2cccc(F)c2)c2ccccn2)ccc2cccnc12 (stereo not drawn)    17.88

I have this compound here, Oc1ccccc1C(Nc1ccccn1)c1ccc2cccnc2c1O (stereo not drawn) , and I need its recorded ICW Re-Test.
43.82

Looking for the measured ICW Re-Test of Oc1c(C(Nc2cccc(Cl)c2)c2ccncc2)ccc2cccnc12 (stereo not drawn) , can you help?
71.32

Could you tell me which ICW Re-Test is on file for Cc1cccc(NC(c2ccccn2)c2ccc3ccc(C)nc3c2O)n1 (stereo not drawn) ?
30.99

Returns the measured ICW Re-Test for the input compound. Input: Oc1ccccc1NC(c1cccnc1)c1ccc2cccnc2c1O (stereo not drawn)
45.66

Would you kindly share the measured ICW Re-Test for Oc1c(C(Nc2nccs2)c2cccs2)ccc2cccnc12 (stereo not drawn) ?
43.06
